Reference source for all entries: PubChem BioAssay (NCI)

Tested on: A498 renal
protocol: NCI tumour cell line growth inhibition, 48 h
Listed compounds paired with reported TGI

Consider the worked cases shown below.
> print(dat)
                           structure.string  subject.of.test    result
1      CN=C(N)/N=C(\N)Nc1cc2ccccc2c2ccccc12       A498 renal   23.3 µM
2  COc1c(O)c(O)c2c(c1O)C(=O)c1cc(C)cc(O)c1C2=O       A498 renal  > 100 µM
3  Cc1ccc(-c2nc(N)c(C#N)c3c2CCOc2c-3ccc3ccccc23)cc1       A498 renal  0.609 µM
4  O=[N+]([O-])c1cc(-c2nnc(C34CC5CC(CC(C5)C3)C4)o2)cc([N+](=O)[O-])c1       A498 renal  > 100 µM

For this compound ( `CCOC(=O)c1[nH]cc(C)c1-c1c[nH]c2ccccc12` ), measured TGI is > 100 µM

====

Listed compounds paired with reported TGI
System: SK-OV-3 ovarian
protocol: NCI tumour cell line growth inhibition, 48 h

> print(dat)
                                   compound   result
1  O=C1CC[C@H](c2ccc(O)c3c2C(=O)[C@@H]2O[C@@H]2C3=O)c2cccc(O)c21  30.4 µM

For this compound ( `O=C1c2cc([N+](=O)[O-])cc3cc([N+](=O)[O-])cc(c23)C(=O)N1CCCNCCNCCCN1C(=O)c2cc([N+](=O)[O-])cc3cc([N+](=O)[O-])cc(c23)C1=O` ), measured TGI is 8.48 µM

For this compound ( `COc1ccc(C(=O)CC(=O)C(=O)Nc2ccc(C)c(C)c2)cc1` ), measured TGI is > 100 µM

For this compound ( CC(=O)c1ccc(NC(=O)C(=O)C(C(=O)c2ccc(Cl)c(Cl)c2)C2OC(=O)c3ccccc32)cc1 (centres undefined) ), measured TGI is > 100 µM

For this compound ( CCCC1=C(C(=O)OCC)C(c2ccccc2OC)C(C#N)=C(N)O1 (centres undefined) ), measured TGI is > 100 µM

For this compound ( `Cn1c(=O)n2c(-c3ccccc3)c(-c3ccccc3)n2c1=O` ), measured TGI is > 100 µM

For this compound ( `COc1cc(/C=C2\C(=O)N(c3ccccc3)c3ccccc32)cc(OC)c1OC` ), measured TGI is 43.8 µM

For this compound ( CC(C)(C)C1(O)C=C(O)C(=O)N1NC(=O)c1ccccc1Nc1ccccc1 (centres undefined) ), measured TGI is > 100 µM

For this compound ( COc1cc(C2CC(c3ccccc3)=NN2C(C)=O)cc(OC)c1OC (centres undefined) ), measured TGI is > 100 µM

====

System: SW-620 colon
protocol: NCI tumour cell line growth inhibition, 48 h
readout.type: TGI

molecule	result
O=P(c1ccccc1)(c1ccccc1)c1ccc2c(c1)OCCOCCOCCOCCO2	> 100 µM
COc1ccc(-c2cc(-c3cc(C)ccc3O)[nH]c(=O)n2)cc1	> 100 µM
COc1ccc(OC)c(/C=C2\COc3ccc(O)c(O)c3C2=O)c1	5.98 µM

Now let's try a different one.
Kindly note: SW-620 colon, `CC(=O)OC[C@@]1(C)[C@@H]2[C@@H]3[C@@]4(CO[C@]3(C)C(=O)[C@@]3(O)C[C@H](C)[C@H](OC(C)=O)[C@@H]3[C@H]4OC(C)=O)[C@H](OC(=O)c3ccccc3)C[C@@H]21` , TGI value reported: > 100 µM

====

Test system: MOLT-4 leukemia
protocol: NCI tumour cell line growth inhibition, 48 h
Listed compounds paired with reported GI50

Consider the worked cases shown below.
compound	result
OCC1OC(n2cnc3c2NC=NC[C@H]3O)CC1O (some centres undefined)	> 588000 nM
C=C(C)[C@@H]1CC[C@]2(C(=O)O)CC[C@]3(C)[C@H](CC[C@@H]4[C@@]5(C)C/C(=C/c6ccc(OC)cc6)C(=O)C(C)(C)[C@@H]5CC[C@]43C)[C@@H]12	2970 nM
COc1cc(NC(=O)CSc2nc3ccccc3c(=O)n2CCc2ccccc2)cc(OC)c1OC	> 100000 nM

For this compound ( `Cc1[nH]nc2ccc3nc(-c4ccc5[nH]ncc5c4)c4c(c3c12)CCCC4` ), measured GI50 is 1920 nM

For this compound ( `N#Cc1c(N)nc(NCc2ccccc2)c(C#N)c1-c1ccccc1Cl` ), measured GI50 is 26800 nM

For this compound ( `Cc1ccc(-c2nc(N)c(C#N)c3c2CCOc2c-3ccc3ccccc23)cc1` ), measured GI50 is 420 nM

====

System: HOP-18 NSCLC
protocol: NCI tumour cell line growth inhibition, 48 h
readout.type: TGI

> print(dat)
                                   compound  subject.of.test    result
1  COc1ccc(-c2cc(-c3cc(C)ccc3O)[nH]c(=O)n2)cc1     HOP-18 NSCLC  > 100 µM
2  COc1ccc(C(=O)C(C(=O)C(=O)NC2C3CC4CC(C3)CC2C4)c2ccc(OC)cc2)cc1 (stereo unspecified)     HOP-18 NSCLC  > 100 µM
3   Cc1ccc(C(=O)C#Cc2c[nH]c(=O)[nH]c2=O)cc1     HOP-18 NSCLC   32.6 µM
4  CCOC(=O)N[C@@H]1C2CC(=O)C(O2)[C@@H]1OC (stereo partly specified)     HOP-18 NSCLC  > 100 µM

Kindly note: HOP-18 NSCLC, `CCOC(=O)C(=O)Nc1c(C)cccc1C(C)C` , TGI value reported: > 100 µM

Kindly note: HOP-18 NSCLC, CSc1nc(C)c(Br)c(=O)n1C1OC(COC(C)=O)C(OC(C)=O)C(OC(C)=O)C1OC(C)=O (stereo unspecified) , TGI value reported: > 100 µM

====

Tested on: MOLT-4 leukemia
protocol: NCI tumour cell line growth inhibition, 48 h
readout.type: TGI

Consider the worked cases shown below.
> print(dat)
                                   compound    result
1  CC1OC(n2c3ccccc3c3c4c(c5c6ccccc6[nH]c5c32)C(=O)N(CCN2CCOCC2)C4=O)CC(O)C1O (stereo not given)   9.93 µM
2  N#Cc1cc(N(CCCl)CCCl)c([N+](=O)[O-])cc1[N+](=O)[O-]  > 100 µM
3  Cc1ccc(-c2nc(N)c(C#N)c3c2CCOc2c-3ccc3ccccc23)cc1  > 100 µM
4  COc1ccc(C(=O)CC(=O)C(=O)Nc2ccc(C)c(C)c2)cc1  > 100 µM
5  CCOC(=O)C(C(=O)OCC)=C1N[C@H](C(=O)OCC)CS1  > 100 µM

For this compound ( CC(C)(C)OC(=O)CC(NC(=O)OC(C)(C)C)C(=O)NC(C(=O)O)C(O)c1ccccc1 (stereo not given) ), measured TGI is > 100 µM

For this compound ( `N=c1n(Cc2ccccc2)c(N)cc(=O)n1Cc1ccccc1` ), measured TGI is 5.38 µM

For this compound ( `Cc1c(C(=O)/C=C/c2c(Cl)cccc2Cl)c(=O)n(-c2ccccc2)n1C` ), measured TGI is > 100 µM

For this compound ( `Cc1c(-c2nnc(-c3ccc(F)cc3)o2)nnn1-c1ccnc2c(C(F)(F)F)cccc12` ), measured TGI is > 100 µM

For this compound ( `CC(C)NC(=O)OCc1c(COC(=O)NC(C)C)c(-c2ccc(Cl)c(Cl)c2)n2c1CCC2` ), measured TGI is 34.8 µM

====

System: HOP-92 NSCLC
protocol: NCI tumour cell line growth inhibition, 48 h
Binary call on TGI: Condition met from 70 µM upward, Condition not met beneath that.

Example results:
> print(dat)
                                   molecule     category.label
1  CCOC(=O)NC(=O)c1cn(CCCOC(=O)NCCCCCCNC(=O)OCCCn2cc(C(=O)NC(=O)OCC)c(=O)[nH]c2=O)c(=O)[nH]c1=O  Condition not met
2  COC(=O)c1cc(C)ccc1C1CN=NC12Cc1cccc(C)c1C2=O (stereo not given)      Condition met
3                      c1ccc(CCN2CCOCC2)nc1      Condition met
4  Clc1ccc(C2=NN[C@H](c3cn(-c4ccccc4)nc3-c3ccccc3)C2)cc1  Condition not met
5  CC(=O)NC1C(OC2C(CO)OC(OCC3OC(n4ccc(N)nc4=O)C(O)C3O)C(NC(C)=O)C2O)OC(CO)C(O)C1O (stereo not given)      Condition met
6  CC1=CC(=O)C(=CN2C(=O)/C(=C\c3cccnc3)NC2=S)C(=O)O1      Condition met
7  CN(C)C1=NC2=S(SC(Nc3ccccc3)=N2)S1 (stereo not given)  Condition not met
8  CCC(c1ccc2cc(O)ccc2c1)C(C)(C)C(=O)O (stereo not given)      Condition met

Challenge: Could you verify whether the entry Nc1ncnc2c1ncn2C1C=CC(COS(N)(=O)=O)C1 (stereo not given) shows TGI of no less than 70 µM?
Response given: Condition met
